Protocol summary: in vitro
Test settings: human, hek293t cells
Measured endpoint: viability at 48 h, 25 µM (%)
Answers are plain numbers, in %.

The cases that follow already have their viability at 48 h, 25 µM on record.
O=C(CCl)c1cnc(N2CCCCC2)s1 : 101
C=CC(=O)NC1CCOCC1 [2-G17, N-(oxan-4-yl)prop-2-enamide] : 93.3
O=C(CCl)NC1CCN(C(=O)c2ccccc2)C1 (centres unmarked) : 0.866
N#CC(=Cc1ccsc1)C(=O)NCc1ccc(Cl)cc1 : 101

viability at 48 h, 25 µM recorded for this molecule, C=CC(=O)N1CCC(Cc2ccccc2)CC1 , is 73

----------
So I've got a bunch of molecules here, and I need their viability at 48 h, 25 µM values.
Protocol summary: in vitro
Test settings: human, hek293t cells
A complete answer gives the number followed by the unit.

CC(Cl)C(=O)N1CCN(CCOc2ccc3c(c2)CCC3)CC1 (centres unmarked) : 3.42%
COc1cccc(NC(=O)C(C)Cl)c1 (centres unmarked) [6-I03, 2-chloro-N-(3-methoxyphenyl)propanamide] : 105%
Cc1cc(C)c(NC(=O)C(C#N)=Cc2cccnc2)c(C)c1 : 122%
O=C(CCl)NC(Cc1ccccc1)c1ccccc1 (centres unmarked) [4-L11, 2-chloro-N-(1,2-diphenylethyl)acetamide] : 0.317%
C=CC(=O)N1CCC(C(=O)N[C@H]2CCC[C@H]2O)CC1 : 84.2%

Hi, could you look up viability at 48 h, 25 µM for each item in my list?
1. C=CC(=O)Nc1cc(SCc2ccccc2C)ncn1
2. C=CC(=O)NCc1ccc(C(=O)NC2CC(=O)N(C)C2)cc1 (centres unmarked)
3. N#CC(=Cc1cc([N+](=O)[O-])ccc1Cl)C(N)=O
4. CC(Cl)C(=O)NCCc1ccc(F)cc1 (centres unmarked)
5. COc1ccc2[nH]cc(C3=CCN(C(=O)C=CCN(C)C)CC3)c2c1

Solution:
1: 0.816%; 2: 81.2%; 3: 101%; 4: 112%; 5: 92.2%

Hi, could you look up viability at 48 h, 25 µM for each item in my list?
1. O=C(CCl)Nc1cc(C(=O)O)cc(C(=O)O)c1
2. CCNC(=O)C(C#N)=Cc1c(N2CCOCC2)nc2ccccn2c1=O
3. CCN(CC)S(=O)(=O)c1ccc(NC(=O)CCl)cc1
4. C=CC(=O)NC(C)(C)c1noc(CCC)n1
5. COc1ccc2cc(C=C(C#N)C(=O)Nc3nccs3)ccc2c1

Solution:
107%
137%
0.364%
91.9%
63.3%

Hi, could you look up viability at 48 h, 25 µM for each item in my list?
1. N#CC(=Cc1cccc(F)c1)C(=O)NCCc1ccccc1
2. O=C(c1cc(=O)[nH]c2ccc([N+](=O)[O-])cc12)N1CCSSCC1

Solution:
["103%", "111%"]

----------
Protocol summary: in vitro
Test settings: human, hek293t cells
Measured endpoint: viability at 48 h, 25 µM
A complete answer gives the number followed by the unit.

The cases that follow already have their viability at 48 h, 25 µM on record.
N#CC(=Cc1ccccc1OCc1ccccc1)C(=O)NC(N)=O [8-F05] : 84.9%
Cc1cc(C)c(-c2cc(NC(=O)CCl)n(-c3ccccc3)n2)cc1C [6-A10] : 0.264%
CC(Cl)C(=O)N1CCC(c2nc3cc(F)ccc3s2)CC1 (centres unmarked) [6-J18] : 78.9%
Cc1cc(C(=O)C(C)Cl)c(C)n1Cc1ccco1 (centres unmarked) [10-E06] : 105%
C=CC(=O)N1CCC(C(=O)Nc2cccc(-c3n[nH]c(C)n3)c2)CC1 [2-J09] : 58.8%
CC(CO)N(Cc1ccccc1Cl)C(=O)CCl (centres unmarked) [6-D17] : 1.39%
C=CC(=O)N1CCCCC(S(C)(=O)=O)C1 (centres unmarked) [2-E17] : 110%
C=CC(=O)NCc1ccc(C(=O)N2CCCC(c3nnc[nH]3)C2)cc1 (centres unmarked) [3-E19] : 34.3%

Hi, could you look up viability at 48 h, 25 µM for each item in my list?
1. CCn1nc(C)c(CNC(=O)CCl)c1C [7-P10]
2. CNC(=O)C(C#N)=Cc1ccc(F)cc1 [9-B14]
3. CC(Cl)C(=O)N1C[C@@H]2CCC[C@@]2(c2nc(-c3cnccn3)no2)C1 (mixture of isomers) [7-C03]
4. Cc1nc(CNC(=O)N2CCSSCC2)cs1 [10-O18]
5. C=CC(=O)N1CCC(Cc2nc(C3CCC3)no2)CC1 [2-A06]
6. CCCCNC(=O)C(C#N)=Cc1cccc2ccccc12 [8-N13]
7. N#CC(=Cc1ccc2ccccc2c1)C(=O)NC(N)=O [9-K10]

Solution:
1. 30%
2. 109%
3. 113%
4. 112%
5. 93%
6. 112%
7. 116%

Hi, could you look up viability at 48 h, 25 µM for each item in my list?
1. O=CN1CCc2cc(C(=O)CCl)ccc21 [10-K20]
2. C=CC(=O)N(C)Cc1conc1CC [2-O15]

Solution:
["89.7%", "187%"]

----------
Protocol summary: in vitro
Test settings: human, hek293t cells
Group membership follows viability at 48 h, 25 µM per the scheme 0: < 30%; 1: ≥ 30% and < 90%; 2: ≥ 90%

Please review the entries below; each comes with its answer.
CC(Cl)C(=O)Nc1ccccc1OC(F)F (centres unmarked) : 2
C=CC(=O)NC1CCc2ccccc21 (centres unmarked) : 2
CC(=O)Nc1ccc(NC(=O)N2CCSSCC2)cc1 : 2
O=C(CCl)c1ccc(F)cc1F : 1

Exercise: Would you mind sorting CCS(=O)(=O)N1CCc2cc(C(=O)CCl)ccc21 into the appropriate category?
Solution: 0

Exercise: Would you mind sorting Cc1ccc(-n2c(C)cc(C(=O)CCl)c2C)cc1C into the appropriate category?
Solution: 0

Exercise: Would you mind sorting O=C(CCl)N1CCC(OCc2ccccc2)CC1 into the appropriate category?
Solution: 0

----------
Protocol summary: in vitro
Test settings: human, hek293t cells
So I've got a bunch of molecules here, and I need their viability at 48 h, 25 µM values.

Cn1ccnc1C(=O)CCl : 67.6%
CCOC(=O)c1c(C)[nH]c(C)c1C(=O)CCl : 101%
C=CC(=O)N1CCC(C(=O)N[C@H]2CC[C@@H](S(C)(=O)=O)CC2)CC1 : 86.3%
O=C(CCl)N1N=C(c2ccsc2)CC1c1cccc(F)c1 (stereo not shown) : 0.063%
CCN(Cc1ccc(C(F)(F)F)cc1)C(=O)CCl : 0.708%

Hi, could you look up viability at 48 h, 25 µM for each item in my list?
1. O=C(CCl)NCCc1ccc(Cl)cc1Cl
2. N#CC(C(=O)CCl)=C(c1ccc(F)cc1)N1CCOCC1

Solution:
1: 1.06%; 2: 53.6%

----------
Protocol summary: in vitro
Test settings: human, hek293t cells
Measured endpoint: viability at 48 h, 25 µM (%)
Answers are plain numbers, in %.

The cases that follow already have their viability at 48 h, 25 µM on record.
C=CC(=O)Nc1ccc(C(N)=O)nc1OC [1-E18] : 69.6
N#CC(=Cc1cccc([N+](=O)[O-])c1)C(=O)NCc1ccc(Cl)cc1 [8-F16] : 0.958
C=CC(=O)N1CCCC1 [1-G08, 1-(pyrrolidin-1-yl)prop-2-en-1-one] : 70.2
CCN(c1ccc(NC(=O)CCl)cc1)C(C)C [5-J08] : 3.48
CC(Cl)C(=O)NC(C)(C)c1cccc(Cl)c1F (stereo not shown) [7-E15] : 91.2
Cc1ccc(S(=O)(=O)N(C)C)cc1NC(=O)C(C)Cl (stereo not shown) [4-I06] : 69.7

Hi, could you look up viability at 48 h, 25 µM for each item in my list?
1. CC(Cl)C(=O)NC(Cc1ccccc1)c1ncco1 (stereo not shown) [7-E12]
2. COc1ccc2[nH]c(C)c(C(=O)CCl)c2c1 [10-L05]
3. CC(NC(=O)C(C#N)=Cc1cc(F)ccc1F)c1ccccc1 (stereo not shown) [8-O06]
4. O=C(CCl)C1CC12CCCCC2 (stereo not shown) [10-A19]
5. O=C(CCl)Cc1c(F)cccc1F [10-O15]
6. CC(Cl)C(=O)N(Cc1ccccc1)C1C=CS(=O)(=O)C1 (stereo not shown) [6-D22]

Solution:
1. 84.4
2. 14.8
3. 25.3
4. 86.3
5. 95.8
6. 98

Hi, could you look up viability at 48 h, 25 µM for each item in my list?
1. CN(CCOc1ccc(Cl)cc1)C(=O)CCl [5-D16]
2. CC(Cl)C(=O)N1CCNC(=O)C1c1cccs1 (stereo not shown) [6-J17]
3. Cc1cc(C(=O)CCl)c(C)n1CCC(C)C [10-L03]
4. Cc1ccccc1C(C)NC(=O)C(C#N)=Cc1ccco1 (stereo not shown) [9-E06]

Solution:
[0.377, 106, 76.2, 107]
